Source: paper PMC12655252

Consider the following compounds and their measured remaining activity at 10 µM readings.
# SYSTEM NAME: HsCK1ε (Homo sapiens, UniProt P49674)
# Construct: made in house; host or cells: Sf9 insect cells
# Sequence (P49674 whole entry): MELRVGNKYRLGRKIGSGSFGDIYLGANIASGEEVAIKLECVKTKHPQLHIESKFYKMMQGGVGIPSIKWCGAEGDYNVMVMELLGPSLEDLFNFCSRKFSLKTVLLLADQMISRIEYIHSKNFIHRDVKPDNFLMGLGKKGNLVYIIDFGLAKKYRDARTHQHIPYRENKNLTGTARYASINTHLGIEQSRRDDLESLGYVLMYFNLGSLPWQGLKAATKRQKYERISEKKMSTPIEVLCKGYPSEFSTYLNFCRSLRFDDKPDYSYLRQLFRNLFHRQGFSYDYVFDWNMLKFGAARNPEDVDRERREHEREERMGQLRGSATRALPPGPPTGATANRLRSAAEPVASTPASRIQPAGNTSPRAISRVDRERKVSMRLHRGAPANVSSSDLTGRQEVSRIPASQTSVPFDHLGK
# EXPERIMENT DESCRIPTION: ADP-Glo in vitro kinase inhibition assay, CK1ε
# Assay type: biochemical
# CONDITION LABEL: 10 μM compound, 10 μM ATP; read-out: CK1 % residual activity
Number only, in %; omit the unit.

Here's what some known entries look like.
>  <COMPOUND>
COC(=O)/C=C/c1c[nH]c2cc3cnccc3cc12 [Compound 8]

>  <TEST VALUE>
77

$$$$
>  <COMPOUND>
Clc1cc(-c2c[nH]c3cc4cnccc4cc23)ccn1 [Compound 2]

>  <TEST VALUE>
54

$$$$
>  <COMPOUND>
c1c[nH]c(-c2c[nH]c3cc4cnccc4cc23)c1 [Compound 17]

>  <TEST VALUE>
81

$$$$

Q: Can you look up remaining activity at 10 µM on HsCK1ε (Homo sapiens, UniProt P49674) for c1cc2cc3c(-c4cc[nH]n4)c[nH]c3cc2cn1 [Compound 15] ?
Result: 48

Q: Now the same for CC(C)(C)OC(=O)CCc1c[nH]c2cc3cnccc3cc12 [Compound 11]
Result: 81

Q: Now the same for CC(C)(C)OC(=O)/C=C/c1c[nH]c2cc3cnccc3cc12 [Compound 9]
Result: 87

Q: Now the same for c1cc2cc3c(-c4cn[nH]c4)c[nH]c3cc2cn1 [Compound 16]
Result: 12

Q: Now the same for Nc1ccc(-c2c[nH]c3cc4cnccc4cc23)cn1 [Compound 3]
Result: 63

Q: Now the same for COC(=O)CCc1c[nH]c2cc3cnccc3cc12 [Compound 10]
Result: 97
